Below, each entry is listed alongside its reported log(1/I50).
Assay System: Ace-orthologous acetylcholinesterase (Nephotettix cincticeps) (UniProt Q9NJH6)
Sequence (Q9NJH6 20-677 limits assumed): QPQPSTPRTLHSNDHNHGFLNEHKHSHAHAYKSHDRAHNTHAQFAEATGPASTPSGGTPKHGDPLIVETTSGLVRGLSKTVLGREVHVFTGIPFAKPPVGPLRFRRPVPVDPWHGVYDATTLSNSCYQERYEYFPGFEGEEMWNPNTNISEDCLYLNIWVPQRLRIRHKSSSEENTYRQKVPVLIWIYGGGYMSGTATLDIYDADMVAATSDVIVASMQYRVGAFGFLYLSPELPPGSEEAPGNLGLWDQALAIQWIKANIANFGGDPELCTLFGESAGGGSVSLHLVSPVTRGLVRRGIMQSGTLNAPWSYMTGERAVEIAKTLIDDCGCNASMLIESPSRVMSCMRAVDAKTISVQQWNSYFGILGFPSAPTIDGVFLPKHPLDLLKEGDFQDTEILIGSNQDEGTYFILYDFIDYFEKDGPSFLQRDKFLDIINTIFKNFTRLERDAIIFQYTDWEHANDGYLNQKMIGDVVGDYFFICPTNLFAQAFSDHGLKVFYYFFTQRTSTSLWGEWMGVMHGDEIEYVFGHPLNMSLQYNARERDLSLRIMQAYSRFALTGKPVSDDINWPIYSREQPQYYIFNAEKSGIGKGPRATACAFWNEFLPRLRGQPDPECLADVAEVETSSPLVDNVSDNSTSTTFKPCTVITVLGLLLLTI
Protocol Summary: Inhibition of susceptible Nephotettix cincticeps Izumi (green rice leafhopper) acetylcholinesterase activity

The examples below pair each entry with its known result.
- Compound: "CCS(=O)(=O)c1cccc(OS(C)(=O)=O)n1"
  log(1/I50): 7.22
- Compound: "CCCCCS(=O)(=O)c1cccc(OS(C)(=O)=O)n1"
  log(1/I50): 8
- Compound: "CC(C)S(=O)(=O)c1cccc(OS(C)(=O)=O)n1"
  log(1/I50): 8.3

Prompt line: Item CS(=O)(=O)Oc1cccc(S(=O)(=O)C2CCCC2)n1 : provide log(1/I50)
Response line: 9.11

Prompt line: Give reported log(1/I50) value for CCCS(=O)(=O)c1cccc(OS(C)(=O)=O)n1
Response line: 8.08

Prompt line: Read the entry CS(=O)(=O)Oc1cccc(S(=O)(=O)c2ccccc2)n1 and write its reported log(1/I50).
Response line: 8

Prompt line: Return log(1/I50) (reported value) for this compound: CCCCS(=O)(=O)c1cccc(OS(C)(=O)=O)n1
Response line: 8.22

Prompt line: Supply measured log(1/I50) of CCCC(C)S(=O)(=O)c1cccc(OS(C)(=O)=O)n1 (centres undefined) in your reply.
Response line: 9.7

* * *

Assay System: Ace-orthologous acetylcholinesterase (Nephotettix cincticeps)
Protocol Summary: Inhibition of susceptible Nephotettix cincticeps Ageo (green rice leafhopper) acetylcholinesterase activity
Observed Property: log(1/I50)
Lab note: record the figure alone, no unit after it.

Use the examples below as a reference point.
- Molecule: "CS(=O)(=O)Oc1cccc(S(=O)(=O)c2ccccc2)n1"
  log(1/I50): 8.14
- Molecule: "CCS(=O)(=O)c1cccc(OS(C)(=O)=O)n1"
  log(1/I50): 8.02
- Molecule: "CS(=O)(=O)Oc1cccc(S(=O)(=O)C2CCCC2)n1"
  log(1/I50): 9.15
- Molecule: "CC(C)CCS(=O)(=O)c1cccc(OS(C)(=O)=O)n1"
  log(1/I50): 7.77

Prompt line: Please report log(1/I50) for the following molecule: CCC(C)S(=O)(=O)c1cccc(OS(C)(=O)=O)n1 (stereo not given)
Response line: 8.7

Prompt line: Give log(1/I50) for the following molecule: CC(C)CS(=O)(=O)c1cccc(OS(C)(=O)=O)n1
Response line: 9.15

Prompt line: Consider the molecule CCCCCS(=O)(=O)c1cccc(OS(C)(=O)=O)n1 and give its recorded log(1/I50).
Response line: 8.15

Prompt line: Name the recorded log(1/I50) of the item CS(=O)(=O)Oc1cccc(S(C)(=O)=O)n1 in your answer.
Response line: 7.17

Prompt line: Please give the documented log(1/I50) of CS(=O)(=O)Oc1cccc(S(=O)(=O)Cc2ccccc2)n1
Response line: 8.82

Prompt line: For the molecule CC(C)(C)S(=O)(=O)c1cccc(OS(C)(=O)=O)n1 , give its measured log(1/I50) value.
Response line: 7.28

Prompt line: Return log(1/I50) for the following molecule: CCCCS(=O)(=O)c1cccc(OS(C)(=O)=O)n1
Response line: 8.8

Prompt line: For the molecule CCCC(C)S(=O)(=O)c1cccc(OS(C)(=O)=O)n1 (stereo not given) , give its measured log(1/I50) value.
Response line: 9.3

Prompt line: Report log(1/I50), nothing else, for this molecule: CCCS(=O)(=O)c1cccc(OS(C)(=O)=O)n1
Response line: 8.7

Prompt line: Provide measured log(1/I50) value, entry: CS(=O)(=O)Oc1cccc(S(=O)(=O)C2CCCCC2)n1
Response line: 9.02

Prompt line: Consider the molecule CC(C)S(=O)(=O)c1cccc(OS(C)(=O)=O)n1 . State its measured log(1/I50).
Response line: 9.52
